MEASURED ON: human ΔF508-CFTR (Homo sapiens, UniProt P13569, DEL508-508)
Sequence (P13569 with tags, fused parts or gaps DEL508-508): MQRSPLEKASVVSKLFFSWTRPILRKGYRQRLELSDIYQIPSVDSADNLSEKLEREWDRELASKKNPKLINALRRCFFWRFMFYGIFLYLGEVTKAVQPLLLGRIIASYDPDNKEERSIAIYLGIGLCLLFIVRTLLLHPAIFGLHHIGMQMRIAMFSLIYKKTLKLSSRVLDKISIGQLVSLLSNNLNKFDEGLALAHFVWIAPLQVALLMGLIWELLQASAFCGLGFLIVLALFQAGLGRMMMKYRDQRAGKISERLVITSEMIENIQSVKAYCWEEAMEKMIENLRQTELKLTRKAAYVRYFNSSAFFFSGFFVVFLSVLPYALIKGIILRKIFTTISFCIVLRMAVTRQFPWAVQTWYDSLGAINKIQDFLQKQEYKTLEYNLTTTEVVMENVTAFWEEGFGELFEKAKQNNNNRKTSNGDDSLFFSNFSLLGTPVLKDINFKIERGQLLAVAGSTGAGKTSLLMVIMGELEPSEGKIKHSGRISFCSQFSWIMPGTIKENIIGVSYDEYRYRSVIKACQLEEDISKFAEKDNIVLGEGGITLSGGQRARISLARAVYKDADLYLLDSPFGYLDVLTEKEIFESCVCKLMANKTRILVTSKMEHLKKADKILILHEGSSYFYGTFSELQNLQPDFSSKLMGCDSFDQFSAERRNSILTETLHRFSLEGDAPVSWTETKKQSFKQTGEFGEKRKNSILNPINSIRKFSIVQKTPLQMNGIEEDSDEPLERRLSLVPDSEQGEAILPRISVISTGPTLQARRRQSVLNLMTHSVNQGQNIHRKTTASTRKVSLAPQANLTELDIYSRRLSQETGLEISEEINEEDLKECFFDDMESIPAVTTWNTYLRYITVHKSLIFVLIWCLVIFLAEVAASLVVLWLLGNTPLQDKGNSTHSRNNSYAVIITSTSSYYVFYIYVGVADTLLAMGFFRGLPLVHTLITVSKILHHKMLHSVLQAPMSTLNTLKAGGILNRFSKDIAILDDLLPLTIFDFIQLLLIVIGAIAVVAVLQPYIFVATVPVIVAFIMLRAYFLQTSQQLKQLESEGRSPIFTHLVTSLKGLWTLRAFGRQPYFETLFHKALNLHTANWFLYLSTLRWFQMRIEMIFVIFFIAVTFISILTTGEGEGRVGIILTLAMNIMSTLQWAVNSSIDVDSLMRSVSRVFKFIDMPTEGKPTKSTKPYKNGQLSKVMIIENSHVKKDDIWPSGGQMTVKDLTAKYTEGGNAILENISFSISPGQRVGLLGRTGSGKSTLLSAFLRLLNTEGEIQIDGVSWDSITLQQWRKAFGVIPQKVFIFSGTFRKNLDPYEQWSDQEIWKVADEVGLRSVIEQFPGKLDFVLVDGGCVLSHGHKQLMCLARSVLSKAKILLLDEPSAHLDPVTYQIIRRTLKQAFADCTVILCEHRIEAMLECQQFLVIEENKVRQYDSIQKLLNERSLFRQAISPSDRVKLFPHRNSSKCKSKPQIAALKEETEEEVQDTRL
PROTOCOL DETAILS: CFTR-YFP High Throughput Assay (HTS YFP flux assay, corrector / potentiator protocols)
EXPERIMENTAL SETUP: FRT cells stably expressing human ΔF508-CFTR and YFP-H148Q/I152L
pEC50: −log10 of the molar value.
QUANTITY: pEC50

Kindly note the recorded pEC50 for CCN(CC)S(=O)(=O)c1ccc2nnc(NCC(C)(C)OC)n2c1 [Example 31] , which is 5.00 to 6.00

Kindly note the recorded pEC50 for CCN(CC)S(=O)(=O)c1ccc2nnc(NCc3ccc(N(C)C)cc3)n2c1 [Example 37] , which is > 6.00

Kindly note the recorded pEC50 for O=S(=O)(c1ccccc1)c1ccc2nc(NCc3ccc(C4CCOCC4)cc3)nn2c1 [Example 92] , which is 5.00 to 6.00

Kindly note the recorded pEC50 for CCN(CC)S(=O)(=O)c1ccc2nnc(NCc3ccccc3C)n2c1 [Example 13] , which is > 6.00

Kindly note the recorded pEC50 for C[C@@H](Nc1nnc2ccc(S(=O)(=O)c3ccc(Cl)cc3)cn12)c1ccccc1 [Example 72] , which is 5.00 to 6.00

Kindly note the recorded pEC50 for CCN(CC)S(=O)(=O)c1ccc2nnc(NCC3CC3)n2c1 [Example 8] , which is > 6.00

Kindly note the recorded pEC50 for CCN(CC)S(=O)(=O)c1ccc2nnc(NC3CCOc4ccccc43)n2c1 (stereo not drawn) [Example 44] , which is > 6.00

Kindly note the recorded pEC50 for O=S(=O)(c1ccccc1)c1ccc2nc(NCc3ccc(-c4ccccn4)cc3)nn2c1 [Example 94] , which is > 6.00

Kindly note the recorded pEC50 for COc1cccc(S(=O)(=O)c2ccc3nnc(N[C@H](C)c4ccccc4)n3c2)c1 [Example 71] , which is 5.00 to 6.00
